pIC50: −log10 of the molar value.
Reported pIC50 for target or system PIK3CG (human) (UniProt P48736), by entry.

Example molecules with recorded pIC50:
- C[C@H](Nc1ncnc2scnc12)c1cc2cccc(/C=C/c3ccccc3)c2c(=O)n1-c1ccccc1: > 7.00
- C[C@H](Nc1ncnc2scnc12)c1cc2cccc(Cl)c2c(=O)n1CCN1CCCC1: < 5.00
- C[C@H](Nc1ncnc2scnc12)c1cc2cccc(-c3ccc(N)nc3)c2c(=O)n1C1CC1: > 7.00

Field: next molecule
Kindly state the measured pIC50 obtained for C[C@H](Nc1ncnc2scnc12)c1cc2cccc(-c3cn(C)cn3)c2c(=O)n1-c1ccccc1 with PIK3CG (human) (UniProt P48736).
Sequence (P48736 whole entry, looked up): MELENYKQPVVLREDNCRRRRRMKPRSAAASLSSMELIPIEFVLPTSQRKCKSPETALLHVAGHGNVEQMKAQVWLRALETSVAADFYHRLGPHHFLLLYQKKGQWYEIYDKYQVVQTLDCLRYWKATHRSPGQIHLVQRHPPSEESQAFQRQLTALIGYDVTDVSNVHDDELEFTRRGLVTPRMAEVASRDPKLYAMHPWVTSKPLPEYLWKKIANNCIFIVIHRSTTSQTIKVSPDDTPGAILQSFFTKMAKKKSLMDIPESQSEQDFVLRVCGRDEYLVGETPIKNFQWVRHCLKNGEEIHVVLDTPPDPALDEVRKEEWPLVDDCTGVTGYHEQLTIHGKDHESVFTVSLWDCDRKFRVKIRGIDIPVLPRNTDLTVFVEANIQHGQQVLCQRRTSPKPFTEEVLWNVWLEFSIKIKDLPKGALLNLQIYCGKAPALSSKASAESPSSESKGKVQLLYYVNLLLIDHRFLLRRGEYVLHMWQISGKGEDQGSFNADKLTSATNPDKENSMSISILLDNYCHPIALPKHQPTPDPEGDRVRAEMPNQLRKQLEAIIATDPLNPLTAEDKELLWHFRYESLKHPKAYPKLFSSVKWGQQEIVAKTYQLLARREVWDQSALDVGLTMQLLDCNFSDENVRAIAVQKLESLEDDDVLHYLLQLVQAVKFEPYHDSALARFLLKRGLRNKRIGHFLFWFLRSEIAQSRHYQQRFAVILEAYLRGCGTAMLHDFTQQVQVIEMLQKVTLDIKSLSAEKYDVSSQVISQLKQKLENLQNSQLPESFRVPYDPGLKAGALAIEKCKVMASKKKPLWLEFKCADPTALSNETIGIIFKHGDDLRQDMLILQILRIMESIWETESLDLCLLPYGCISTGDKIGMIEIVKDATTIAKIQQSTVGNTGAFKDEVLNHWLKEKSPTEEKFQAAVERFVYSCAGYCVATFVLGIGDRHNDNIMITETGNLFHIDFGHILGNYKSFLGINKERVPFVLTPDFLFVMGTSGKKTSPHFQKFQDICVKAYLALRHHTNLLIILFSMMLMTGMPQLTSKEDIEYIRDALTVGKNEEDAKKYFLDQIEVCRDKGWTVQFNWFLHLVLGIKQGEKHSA
< 5.00

----------
Recorded pIC50 values for a group of compounds are listed next.
tgt: PIK3CG (human) (UniProt P48736)
pIC50: −log10 of the molar value.

• C[C@H](Nc1ncnc2scnc12)c1cc2cccc(-c3cnc4ccccc4c3)c2c(=O)n1-c1ccccc1 = > 7.00
• C[C@H](Nc1ncnc2scnc12)c1cc2cccc(-c3ccoc3)c2c(=O)n1-c1ccccc1 = > 7.00
• C[C@H](Nc1ncnc2scnc12)c1cc2cccc(C(=O)N(C)C)c2c(=O)n1-c1ccccc1 = < 5.00

Recall the recorded pIC50 for C[C@H](Nc1ccnc2scnc12)c1cc2cccc(-c3cnn(C)c3)c2c(=O)n1-c1ccccc1 with PIK3CG (human) (UniProt P48736) and state it.
> 7.00

Identify the measured pIC50 of C[C@H](Nc1ncnc2scnc12)c1cc2cccc(-c3cnc(N)nc3)c2c(=O)n1-c1ccccc1 for PIK3CG (human) (UniProt P48736).
> 7.00

----------
pIC50: −log10 of the molar value.
Here we list compounds with their recorded pIC50 when tested on PIK3CG (human) (UniProt P48736).

Sample records with pIC50:
* COc1ccc(-c2cccc3cc([C@H](C)Nc4ncnc5scnc45)n(-c4ccccc4)c(=O)c23)cc1 | > 7.00
* COc1ncc(-c2cccc3cc([C@H](C)Nc4ncnc5scnc45)n(-c4ccccc4)c(=O)c23)cc1C(F)(F)F | > 7.00
* CC(C)n1c([C@H](C)Nc2ncnc3scnc23)cc2cccc(-c3ccc(=O)n(C)c3)c2c1=O | 6.00 to 7.00
* C[C@H](Nc1ncnc2scnc12)c1cc2cccc(-c3ccncc3)c2c(=O)n1-c1ccccc1 | > 7.00
* C[C@H](Nc1ncnc2scnc12)c1cc2cccc(Cl)c2c(=O)n1-c1ccon1 | 6.00 to 7.00

Request: pIC50, test system PIK3CG (human) (UniProt P48736), entry C[C@H](Nc1ncnc2scnc12)c1cc2cccc(-c3cnn(C)c3)c2c(=O)n1C1CC1
> 7.00

Form field - read-out: pIC50; system: PIK3CG (human) (UniProt P48736); submitted item: C[C@H](Nc1ncnc2scnc12)c1cc2cccc(-c3ccc(N)nc3)c2c(=O)n1-c1ccccc1
> 7.00

----------
tgt: UniProtKB P48736
Entries and their IC50

- Cc1cc(-c2cccc3cc([C@H](C)Nc4ncnc5scnc45)n(-c4ccccc4)c(=O)c23)cnc1C: < 0.1 µM

Lookup: IC50 / UniProtKB P48736 / C[C@H](Nc1ncnc2scnc12)c1cc2cccc(-c3ccnnc3)c2c(=O)n1-c1ccccc1
< 0.1 µM

IC50 of C[C@H](Nc1ncnc2scnc12)c1cc2cccc(C=O)c2c(=O)n1-c1ccccc1 on UniProtKB P48736?
< 0.1 µM
